Data origin: paper PMC9415894

test system: antibodies generated following vaccination with hapten 3; assay: Competitive ELISA, day 35 pooled sera of hapten 3 vaccine group; assay type: binding, mice; conditions: SCRA at 10 μM; day 35 pooled sera
Attribute measured: % Inhibition, HAPTEN 3 (%)
Kindly answer with a numeric value in %, unit omitted.

Before answering, review these 3 worked examples.
>  <Compound>
CCCCCn1cc(C(=O)c2cccc3ccccc23)c2ccccc21 [Compound 1, JWH-018]

>  <Value unit>
%

>  <% Inhibition, HAPTEN 3>
14.6

$$$$
>  <Compound>
COC(=O)C(NC(=O)c1nn(CCCCCF)c2ccccc12)C(C)C (centres unmarked) [Compound 6, 5F-AMB]

>  <Value unit>
%

>  <% Inhibition, HAPTEN 3>
57.4

$$$$
>  <Compound>
COC(=O)C(NC(=O)c1cn(CCCCCF)c2ccccc12)C(C)C (centres unmarked) [Compound 4]

>  <Value unit>
%

>  <% Inhibition, HAPTEN 3>
69.0

$$$$

## Input GET /values?readout=% Inhibition, HAPTEN 3&system=antibodies generated following vaccination with hapten 3&item= O=C(c1cccc2ccccc12)c1cn(CCCCCF)c2ccccc12 [Compound 2, AM-2201]
## Output 18.0

###

% Inhibition, HAPTEN 4: recorded values
Tested on: antibodies generated following vaccination with hapten 4
Assay: Competitive ELISA, day 35 pooled sera of hapten 4 vaccine group
Format: binding, mice
Details: SCRA at 10 μM; day 35 pooled sera
Experimental: Vaccination: Vaccine formulation consisted of our bioconjugates at 1 mg/mL (100 μg/mouse), Alum (50 μg/mouse) and a 1 mg/mL CpG ODN 1826 (50 μg/mouse) in 1X PBS solution. Vaccines were shaken at 4 °C for 45 min prior to animal use. […] Antibody Titers: Costar® 96-well plates were coated with 25 μL of a 5 μg/mL solution of hapten-BSA conjugate and incubated overnight at 37 °C. […] Optical densities were determined at 450 nm using MiniMax 300 plate reader (Molecular Devices). […]

Before answering, review these 6 worked examples.
>  <Molecule>
CCCCCn1cc(C(=O)c2cccc3ccccc23)c2ccccc21 [Compound 1, JWH-018]

>  <% Inhibition, HAPTEN 4>
10.9%

$$$$
>  <Molecule>
CCCCCn1cc(C(=O)Oc2cccc3ccccc23)c2ccccc21 [Compound 8, NAPIC]

>  <% Inhibition, HAPTEN 4>
11.0%

$$$$
>  <Molecule>
COC(=O)C(NC(=O)c1nn(Cc2ccc(F)cc2)c2ccccc12)C(C)C (centres unmarked) [Compound 7, AMB-FUBINACA]

>  <% Inhibition, HAPTEN 4>
77.7%

$$$$
>  <Molecule>
COC(=O)C(NC(=O)c1cn(CCCCCF)c2ccccc12)C(C)C (centres unmarked) [Compound 4]

>  <% Inhibition, HAPTEN 4>
54.3%

$$$$
>  <Molecule>
COC(=O)C(NC(=O)c1nn(CCCCCF)c2ccccc12)C(C)C (centres unmarked) [Compound 6, 5F-AMB]

>  <% Inhibition, HAPTEN 4>
63.9%

$$$$
>  <Molecule>
CCCCCn1nc(C(=O)NC(C(=O)OC)C(C)C)c2ccccc21 (centres unmarked) [Compound 5, MMB-PINACA]

>  <% Inhibition, HAPTEN 4>
85.5%

$$$$

## Input GET /values?readout=% Inhibition, HAPTEN 4&system=antibodies generated following vaccination with hapten 4&item= O=C(c1cccc2ccccc12)c1cn(CCCCCF)c2ccccc12 [Compound 2, AM-2201]
## Output 14.4%

## Input GET /values?readout=% Inhibition, HAPTEN 4&system=antibodies generated following vaccination with hapten 4&item= CCCCCn1cc(C(=O)NC(C(=O)OC)C(C)C)c2ccccc21 (centres unmarked) [Compound 3, MMB-PICA]
## Output 71.0%
